Target: T1, human insulin receptor (HIR) (human, UniProt P06213 28-1382, limits assumed)
T1 construct: Detergent-solubilised receptor; The natural receptor is an alpha2-beta2 heterotetramer cleaved from one precursor
Assay overview: 125I-insulin displacement, solubilised HIR
Positions of bridges follow the written chain, without caps; N, C: chain ends. Non-standard residues stand in square brackets, D forms with d. Chains are numbered I, II in the order given. No end group written: not given here. Ac6c = NC1(C(=O)O)CCCCC1

# Binder, Measurement unit, Kd
rows = [
    ("EFHENFYDWFVRQVSEE [S115]", "nM", 650),
    ("S333 (N-terminal Lig′ coupled to linker 22, dimer, N-N) peptide 1: XGSLDESFYDWFERQLGKK peptide 2: XGSLDESFYDWFERQLGKK", "nM", 140),
    ("GRVDWLQRNANFYDWFVAE [S249]", "nM", 740),
    ("FHENFYDWFVAQVSKK [S108]", "nM", 750),
    ("S354 (N-terminal Lig′ coupled to linker 14, dimer, N-N) peptide 1: XGSLDESFYDWFERQLGKK peptide 2: XGSLDESFYDWFERQLGKK", "nM", 39),
    ("KHLCVLEELFWGASLFGYCSGKK [S331]", "nM", 1600),
    ("S334 (N-terminal Lig′ coupled to linker 22, dimer, N-N) peptide 1: XGGGFHENFYDWFVRQVSKK peptide 2: XGGGFHENFYDWFVRQVSKK", "nM", 1600),
    ("SGSLDESFYDWFERQLGKK [S372]", "nM", 200),
    ("GRVDWLQRNANFYDWFVAE[Ac6c]G [S306]", "nM", 2200),
    ("S325 (N-terminal Lig′ coupled to linker 9, dimer, N-N) peptide 1: XGSLDESFYDWFERQLGKK peptide 2: XGSLDESFYDWFERQLGKK", "nM", 46),
    ("NANFYDWFVAELG [S241]", "nM", 1600),
    ("GSLDESFYDWFERQLGKK (also called RP9) [S371]", "nM", 630),
    ("HPPLSELKLFLIKK [S124]", "nM", 23000),
    ("HDPFYSMMKSLLK [S120]", "nM", 2000),
    ("S231 (not fully specified; C-terminal Lig′ coupled to linker 14, dimer, C-C) peptide 1: FHENFYDWFVRQVSKKGGGX peptide 2: FHENFYDWFVRQVSKKGGGX", "nM", 270),
    ("FAENFYDWFVRQVSKK [S112]", "nM", 610),
    ("S170 (bridge I:1-II:1; also: homodimer, N-N, linked at cysteines, type of link not given here, dimer, N-N; also called 3170 (so in the source)) peptide 1: CGFHENFYDWFVRQVSKK peptide 2: CGFHENFYDWFVRQVSKK", "nM", 700),
    ("FYDWFERQLG [S392]", "nM", 3800),
    ("FHENFYDWFVRAVSKK [S107]", "nM", 1000),
    ("QSDSGTVHDRFYGWFRDTWAS [S179]", "nM", 540),
    ("S229 (not fully specified; C-terminal Lig′ coupled to linker 12, heterodimer F2-F4, C-C) peptide 1: SDGFYNAIELLSX peptide 2: KHLCVLEELFWGASLFGYCSGKKX", "nM", 44),
    ("S378 (C-terminal Lys carrying Ald coupled to linker 17, dimer, C-C) peptide 1: GSLDESFYDWFERQLGKKKX peptide 2: GSLDESFYDWFERQLGKKKX", "nM", 65),
    ("QAPSNFYDWFVREWDEE [S287]", "nM", 5900),
    ("RMYFSTGAPQNFYDWFVQEWD [S365]", "nM", 10000),
    ("SDGFYNAIELLS [S118]", "nM", 2400),
    ("VDWLQRNANFYDWFVAELG [S235]", "nM", 53),
    ("DLRVLCELFGGAYVLGYCSE [S281]", "nM", 11000),
]
